- Tested on: KB
- Measurement Notes: In vitro inhibition of growth of KB cells (cytotoxic assay).
- Format: functional, cell-based, Homo sapiens
- Measurement Context: Homo sapiens, KB
Measured Parameter: IC50 (nM)
All answers are understood in nM, so give the number only.

CC(=O)[O-].CCn1c(=O)/c(=C2\Sc3ccccc3N2C)s/c1=C\c1ccc2ccccc2[n+]1CC : 280

Prompt line: Quick one: IC50 for CC(=O)[O-].CCN1/C(=C/C=c2\s/c(=C\C3=[N+](CC)CCS3)n(CC)c2=O)C=Cc2ccccc21 ?
Response line: 910

Prompt line: Request: CCN1CCS/C1=C\C=c1/s/c(=C\c2sc3c4ccccc4ccc3[n+]2C)n(CC)c1=O
Response line: 490

---

- System: CV-1
- Measurement Notes: The IC50 value for 50%inhibition of cells on clonogenic CV-1 […] cytotoxic cell lines.
- Type: functional, cell-based
- Measurement Context: Chlorocebus aethiops
Measured Parameter: IC50 (µM)
All answers are understood in µM, so give the number only.

Prompt line: Quick one: IC50 for CC(=O)[O-].CCn1c(=O)/c(=C2\Sc3ccccc3N2C)s/c1=C\c1cccc[n+]1CC ?
Response line: 63.2

---

- Tested on: KB
- Measurement Notes: In vitro inhibition of growth of KB cells (cytotoxic assay).
- Assay type: functional, cell-based, Homo sapiens
- Measurement Context: Homo sapiens, KB
# IC50 per record follows
All answers are understood in nM, so give the number only.

CCn1c(=O)/c(=C/C=C2\Sc3ccc4ccccc4c3N2C)s/c1=C\c1scc(C)[n+]1CC : 2000
CC(=O)[O-].CCn1c(=O)/c(=C2\Sc3ccccc3N2C)s/c1=C\c1scc(C)[n+]1CC : 950
CCn1c(=O)/c(=C2\Oc3ccccc3N2C)s/c1=C\c1cccc[n+]1CC : 3730
CCn1c(=O)/c(=C2\C=CC=CN2C)s/c1=C\c1sc2ccccc2[n+]1CC : 2170
CCn1c(=O)/c(=C2\Sc3ccc4ccccc4c3N2C)s/c1=C\c1sc2c3ccccc3ccc2[n+]1CC.[Cl-] : 340
CCCC[n+]1c(/C=c2\s/c(=C\C=C3/SCCN3CC)c(=O)n2CC)sc2c3ccccc3ccc21 : 460
CC(=O)[O-].CCn1c(=O)/c(=C2\Sc3ccccc3N2C)s/c1=C\c1oc2ccccc2[n+]1CC : 1130

Prompt line: Quick one: IC50 for CC(=O)[O-].CCn1c(=O)/c(=C2\SCCN2C)s/c1=C\c1sc2ccc3ccccc3c2[n+]1CC ?
Response line: 250

---

- Tested on: CX-1
- Measurement Notes: In vitro inhibition of growth of human carcinoma CX-1 cell line (clonogenic assay).
- Type: functional, cell-based
- Measurement Context: Homo sapiens, CX-1
# IC50 per record follows
All answers are understood in µM, so give the number only.

// worked examples, IC50 included
CCn1c(=O)/c(=C2\Sc3ccc4ccccc4c3N2C)s/c1=C\c1sc2c3ccccc3ccc2[n+]1CC.[Cl-] : 0.05
CCN1C=CC=C/C1=C\C=c1/s/c(=C\c2sc3ccc4ccccc4c3[n+]2CC)n(CC)c1=O.[Cl-] : 0.08

Prompt line: Quick one: IC50 for CC(=O)[O-].CCN1/C(=C/C=c2\s/c(=C\C3=[N+](CC)CCS3)n(CC)c2=O)C=Cc2ccccc21 ?
Response line: 0.16

Prompt line: Request: CC(=O)[O-].CCn1c(=O)/c(=C2\Sc3ccccc3N2C)s/c1=C\C1CCC[n+]2c1sc1ccccc12 (configuration not stated)
Response line: 0.23

Prompt line: Request: CC(=O)[O-].CCn1c(=O)/c(=C2\Sc3ccccc3N2C)s/c1=C\c1sc2ccccc2[n+]1CC
Response line: 0.06
